- Test system: batrachotoxin (BTX) binding site of the sodium channel
- Protocol notes: Affinity to the batrachotoxin (BTX) binding site of the sodium channel
- Experimental setup: Table II; rat cerebrocortex synaptosomes; test concentration not given
Property label: BTX inhibition
I only need the number, thanks.

Some entries whose results are on file:
> print(dat)
                            compound.smiles  property.label  recorded.number
1  Cl.O=C1[C@H](Cc2ccccc2)NC2(CCNCC2)N1Cc1ccccc1  BTX inhibition               87
2  Cl.O=C(C(c1ccccc1)c1ccccc1)N1CCC2(CC1)N[C@@H](Cc1ccccc1)C(=O)N2Cc1ccccc1  BTX inhibition               67

Please fill in: BTX inhibition reported for Cl.O=C(c1ccc2ccccc2c1)N1CCC2(CC1)N[C@@H](Cc1ccccc1)C(=O)N2Cc1ccccc1 = 49

Data provenance: patent US7951815B2
